Target: Prothrombin (Bos taurus, UniProt P00735)
Test: Inhibition of plasma fibrin clot formation by thrombin in vitro.
Square brackets hold non-standard residues; d marks the D form. Peptide text beside a SMILES is read from it. sY = N[C@@H](Cc1ccc(OS(=O)(=O)O)cc1)C(=O)O; Sar = CNCC(=O)O
Listed here: items and their measured IC50.

| compound | systemName | valuePrefix | IC50 / µM |
| --- | --- | --- | --- |
| CC(C)C[C@H](NC(=O)[C@H](Cc1ccc(OS(=O)(=O)O)cc1)NC(=O)[C@H](CCC(=O)O)NC(=O)[C@H](CCC(=O)O)NC(=O)[C@@H]1CCCN1C(=O)[C@H](CC(C)C)NC(=O)[C@H](CCC(=O)O)NC(=O)[C@H](CCC(=O)O)NC(=O)[C@H](Cc1ccccc1)NC(=O)[C@H](CC(=O)O)NC(=O)CN)C(=O)N[C@@H](CCC(N)=O)C(=O)O (H-GDFEELPEE[sY]LQ-OH) | Prothrombin (Bos taurus, UniProt P00735) | = | 8.3 |
| CC[C@H](C)[C@H](NC(=O)[C@H](CCC(=O)O)NC(=O)[C@H](CCC(=O)O)NC(=O)[C@H](Cc1ccccc1)NC(=O)[C@H](CC(=O)O)NC(=O)CN)C(=O)N(C)CC(=O)N[C@@H](CCC(=O)O)C(=O)N[C@@H](CCC(=O)O)C(=O)N[C@@H](Cc1ccc(OS(=O)(=O)O)cc1)C(=O)N[C@@H](CC(C)C)C(=O)N[C@@H](CCC(N)=O)C(=O)O (H-GDFEEI[Sar]EE[sY]LQ-OH) | Prothrombin (Bos taurus, UniProt P00735) | = | 17.3 |
| CC[C@H](C)[C@H](NC(=O)[C@H](CCC(=O)O)NC(=O)[C@H](CCC(=O)O)NC(=O)[C@H](Cc1ccccc1)NC(=O)[C@@H](N)CC(=O)O)C(=O)N1CCC[C@H]1C(=O)N[C@@H](CCC(=O)O)C(=O)N[C@@H](CCC(=O)O)C(=O)N[C@@H](CCC(=O)O)C(=O)N[C@@H](CC(C)C)C(=O)N[C@@H](C)C(=O)O (H-DFEEIPEEELA-OH) | Prothrombin (Bos taurus, UniProt P00735) | = | 59.1 |
| CC[C@H](C)[C@H](NC(=O)[C@H](CCC(=O)O)NC(=O)[C@H](CCC(=O)O)NC(=O)[C@H](Cc1ccc(O)cc1)NC(=O)[C@H](CC(=O)O)NC(=O)CN)C(=O)N1CCC[C@H]1C(=O)N[C@@H](CCC(=O)O)C(=O)N[C@@H](CCC(=O)O)C(=O)N[C@@H](Cc1ccc(OS(=O)(=O)O)cc1)C(=O)N[C@@H](CC(C)C)C(=O)N[C@@H](CCC(N)=O)C(=O)O (H-GDYEEIPEE[sY]LQ-OH) | Prothrombin (Bos taurus, UniProt P00735) | = | 3.3 |
| CC[C@H](C)[C@H](NC(=O)[C@H](CCC(=O)O)NC(=O)[C@H](CCC(=O)O)NC(=O)[C@H](Cc1ccccc1)NC(=O)[C@@H](N)CC(=O)O)C(=O)N[C@@H](C)C(=O)N[C@@H](CCC(=O)O)C(=O)N[C@@H](CCC(=O)O)C(=O)N[C@@H](Cc1ccc(OS(=O)(=O)O)cc1)C(=O)N[C@@H](CC(C)C)C(=O)N[C@@H](CCC(N)=O)C(=O)O (H-DFEEIAEE[sY]LQ-OH) | Prothrombin (Bos taurus, UniProt P00735) | > | 200 |
| CC(C)C[C@H](NC(=O)[C@H](Cc1ccc(OS(=O)(=O)O)cc1)NC(=O)[C@H](CCC(=O)O)NC(=O)[C@H](CCC(=O)O)NC(=O)[C@@H]1CCCN1C(=O)[C@H](C)NC(=O)[C@H](CCC(=O)O)NC(=O)[C@H](CCC(=O)O)NC(=O)[C@H](Cc1ccccc1)NC(=O)[C@@H](N)CC(=O)O)C(=O)N[C@@H](CCC(N)=O)C(=O)O (H-DFEEAPEE[sY]LQ-OH) | Prothrombin (Bos taurus, UniProt P00735) | > | 200 |

From: ChEMBL document CHEMBL1123843
